Entries and their measured % ΔcGI follow.
# System: M. avium ATCC 25291
# Format: cell-based, M. avium subspecies avium
# measurement-conditions: 64 μg/ml; M. avium 25291; vs 3.2% DMSO control
Give a bare numeral; the unit % is implied.

{"columns": ["compound", "assayed-system", "% ΔcGI, %"],
 "data": [
  ["CO[C@H]1C[C@@H]2CC[C@@H](C)[C@@](O)(O2)C(=O)C(=O)N2CCCC[C@H]2C(=O)O[C@H]([C@H](C)C[C@@H]2CC[C@@H](O)[C@H](OC)C2)CC(=O)[C@H](C)/C=C(\\C)[C@@H](O)[C@@H](OC)C(=O)[C@H](C)C[C@H](C)/C=C/C=C/C=C/1C [Rapamycin, sirolimus (rapamycin)]", "M. avium ATCC 25291", "−18"],
  ["CC[C@@]1([C@@H]2O[C@@H]([C@H]3O[C@@](O)(CO)[C@H](C)C[C@@H]3C)C[C@@H]2C)CC[C@H]([C@]2(C)CC[C@]3(C[C@H](O)[C@@H](C)[C@@H]([C@@H](C)[C@@H](OC)[C@H](C)C(=O)O)O3)O2)O1", "M. avium ATCC 25291", "−87"]
]}

Query CC(C)/N=c1\cc2n(-c3ccc(Cl)cc3)c3ccccc3nc-2cc1Nc1ccc(Cl)cc1 yields % ΔcGI of −99

====

# System: M. avium ATCC 25291
# Type: cell-based, M. avium subspecies avium
# measurement-conditions: 1 μg/ml; M. avium 25291; vs 3.2% DMSO control
readout-label: % ΔcGI (%)
Give a bare numeral; the unit % is implied.

{"columns": ["molecule", "endpoint-result"],
 "data": [
  ["O=C1NC(=O)c2ccccc21 [Phthalimide, phthalimide]", 2]
]}

Query C[C@@H]1C[C@@H]([C@H](O)CC2CC(=O)NC(=O)C2)C(=O)[C@@H](C)C1 [Cycloheximide, cycloheximide] yields % ΔcGI of 0

Query CC[C@@]1([C@@H]2O[C@@H]([C@H]3O[C@@](O)(CO)[C@H](C)C[C@@H]3C)C[C@@H]2C)CC[C@H]([C@]2(C)CC[C@]3(C[C@H](O)[C@@H](C)[C@@H]([C@@H](C)[C@@H](OC)[C@H](C)C(=O)O)O3)O2)O1 [Monensin, monensin] yields % ΔcGI of −25

Query CC(C)/N=c1\cc2n(-c3ccc(Cl)cc3)c3ccccc3nc-2cc1Nc1ccc(Cl)cc1 [Clofazimine, clofazimine] yields % ΔcGI of −98

Query C=CC[C@@H]1/C=C(\C)C[C@H](C)C[C@H](OC)[C@H]2O[C@@](O)(C(=O)C(=O)N3CCCC[C@H]3C(=O)O[C@H](/C(C)=C/[C@@H]3CC[C@@H](O)[C@H](OC)C3)[C@H](C)[C@@H](O)CC1=O)[C@H](C)C[C@@H]2OC [Tacrolimus, tacrolimus (FK506)] yields % ΔcGI of −23

Query CO[C@H]1C[C@@H]2CC[C@@H](C)[C@@](O)(O2)C(=O)C(=O)N2CCCC[C@H]2C(=O)O[C@H]([C@H](C)C[C@@H]2CC[C@@H](O)[C@H](OC)C2)CC(=O)[C@H](C)/C=C(\C)[C@@H](O)[C@@H](OC)C(=O)[C@H](C)C[C@H](C)/C=C/C=C/C=C/1C [Rapamycin, sirolimus (rapamycin)] yields % ΔcGI of 10
